Tested on: OVCAR-3 ovarian
Test: NCI tumour cell line growth inhibition, 48 h
Below: a set of entries, each annotated with reported TGI.

Nn1c(SCC(=O)NCc2ccccc2)nc2ccccc2c1=O    > 100 µM
Cc1ccc([N+](=O)[O-])cc1S(=O)(=O)Nc1ccc(C2=NNC(c3cccs3)C2)cc1 (centres undefined)    43.2 µM
CN[C@@H](C)[C@H](OP(=O)(O)OC1[C@@H](O)[C@H](O)C(O)[C@H](O)[C@@H]1O)c1ccccc1 (some centres undefined)    > 100 µM
CCn1cc(C(=O)N/N=C/c2cccc(F)c2)c(=O)c2cc(F)c(N3CCNC(C)C3)c(F)c21 (centres undefined)    3.4 µM
Cc1ccc(Nc2sc(C)cc2C#N)c([N+](=O)[O-])c1    > 100 µM
CC1(C)CCC2(C(=O)O)CC[C@]3(C)C(=CCC4C5(C)CC[C@H](OC6OC(C(=O)O)C(O)C(OC7OC(CO)C(O)C(O)C7O)C6OC6OC(CO)C(O)C(O)C6O)C(C)(C)C5CCC43C)C2C1 (some centres undefined)    > 100 µM

Please indicate TGI recorded for C[Si](C)(C)/C=C\CCCN1C(=O)CCC1=O > 100 µM

Input CCc1n[nH]c(=O)n1NC(=O)c1ccccc1C(=O)O , output reported TGI. > 100 µM

Consider the compound N/C(=N\c1nc2ccccc2s1)NC(=O)Nc1ccccc1Cl . State its measured TGI. 0.594 µM

Data provenance: PubChem BioAssay (NCI)
